- SYSTEM_TESTED: NL20 human bronchial epithelial cells expressing human Z-AAT (Homo sapiens, UniProt P01009, E366K)
- Sequence (P01009 25-418 E366K): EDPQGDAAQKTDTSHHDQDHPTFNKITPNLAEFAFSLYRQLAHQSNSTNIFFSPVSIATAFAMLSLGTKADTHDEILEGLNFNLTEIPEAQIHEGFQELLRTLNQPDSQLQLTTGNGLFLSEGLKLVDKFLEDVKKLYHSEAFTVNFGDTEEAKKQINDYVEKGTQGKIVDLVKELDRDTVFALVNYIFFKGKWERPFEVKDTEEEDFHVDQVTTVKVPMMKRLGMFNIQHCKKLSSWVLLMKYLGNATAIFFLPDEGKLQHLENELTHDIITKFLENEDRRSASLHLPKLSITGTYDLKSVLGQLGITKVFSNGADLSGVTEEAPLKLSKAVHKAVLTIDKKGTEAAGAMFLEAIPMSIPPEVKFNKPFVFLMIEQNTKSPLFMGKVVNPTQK
- TEST: AAT Function Assay (MSD Assay NL20-SI Cell Line)
- RUN_CONDITIONS: functionally active AAT in supernatant of NL20 cells expressing human Z-AAT, MSD readout; read-out: NL20 Func. (EC50)
pEC50: −log10 of the molar value.
MEASURED_QUANTITY: pEC50

                                   molecule  reported_measurement
0  CC(C)c1c(-c2cc(C(=O)O)cc3[nH]ccc23)c2cc3[nH]ncc3cc2n1-c1ccc(F)cc1                < 6.00
1  COCC(C)(C)c1c(-c2ccc(C(=O)N[C@H]3C[C@H](CO)NC3=O)cc2)c2cc3[nH]ncc3cc2n1-c1ccc(F)cc1                < 6.00
2  CC(C)c1c(-c2cc3[nH]c(C(=O)O)cc3s2)c2cc3[nH]ncc3cc2n1-c1ccc(F)cc1                < 6.00

The molecule identified as "CC(C)c1c(-c2ccc(C(=O)O)cc2)c2cc3[nH]ncc3cc2n1-c1ccccc1F" registered its pEC50 at > 6.40

What the record says about "COCC(C)(C)c1c(-c2ccc(C(=O)O)cc2)c2cc3[nH]nc(C)c3cc2n1-c1ccc(F)cc1" : pEC50 is > 6.40

According to the records, this molecule O=C(O)c1ccc(-c2c(C3CCCOC3)n(-c3ccc(F)cc3)c3cc4cn[nH]c4cc23)cc1 (single isomer, unassigned) [Compound 47] displays pEC50 of > 6.40

Measured pEC50 of "Cc1n[nH]c2cc3c(-c4cc(F)c(O)c(F)c4)c(C4CCOCC4)n(-c4ccc(F)cc4)c3cc12" : 6.00 to 6.40

###

Entries and their pEC50 values follow.
- SYSTEM_TESTED: NL20 human bronchial epithelial cells expressing human Z-AAT (Homo sapiens, UniProt P01009, E366K)
- TEST: AAT Function Assay (MSD Assay NL20-SI Cell Line)
- RUN_CONDITIONS: functionally active AAT in supernatant of NL20 cells expressing human Z-AAT, MSD readout; read-out: NL20 Func. (EC50)
pEC50: −log10 of the molar value.

Would you please look over these solved cases?
COMPOUND	pEC50
COc1nc(P(C)(C)=O)ccc1-c1c(C(C)(C)CC#N)n(-c2ccc(F)cc2)c2cc3cn[nH]c3cc12 [Compound 202]	6.00 to 6.40
O=C(OC1O[C@H](C(=O)O)[C@@H](O)[C@H](O)[C@H]1O)c1ccc(-c2c(C3CCOCC3)n(-c3ccc(F)cc3)c3cc4cn[nH]c4cc23)cc1 (some centres unmarked) [Compound 34]	< 6.00
Cc1cc(-n2c(C(C)(C)CC#N)c(-c3ccc(C(=O)O)cc3)c3cc4[nH]ncc4cc32)ncc1F [Compound 179]	< 6.00
CC(C)(CC#N)c1c(-c2ccc(C(=O)O)cc2)c2cc3[nH]ncc3cc2n1Cc1ccccc1 [Compound 298]	< 6.00
Cc1cc(-c2c(C(C)(C)CS(C)(=O)=O)n(-c3ccc(F)cc3)c3cc4cn[nH]c4cc23)cnc1P(C)(C)=O [Compound 258]	6.00 to 6.40

Lookup result for CC(C)c1c(-c2ccc(OCC(=O)O)cc2)c2cc3[nH]ncc3cc2n1-c1ccc(F)cc1 [Compound 100] ; measured pEC50: < 6.00

Measured pEC50, CC(C)Cc1c(-c2ccc(C(=O)O)cc2)c2cc3[nH]ncc3cc2n1-c1ccc(F)cc1 [Compound 270] : > 6.40

The reported pEC50 of the compound Cc1cc(C(=O)O)cnc1-c1c(C(C)C)n(-c2ccc(F)cc2)c2cc3cn[nH]c3cc12 [Compound 92] was < 6.00

CC(C)c1c(-c2ccc(C(=O)O)nc2)c2cc3[nH]ncc3cc2n1-c1ccc(F)cc1 [Compound 99] has a reported pEC50 of < 6.00

For this compound ( COC(C)(C)Cc1c(-c2ccc(C(=O)O)cc2)c2cc3[nH]ncc3cc2n1-c1ccc(F)cc1 [Compound 122] ), measured pEC50 is < 6.00

# compound O=C(O)c1ccc(-n2c(C3CCOCC3)c(-c3ccc(F)cc3)c3cc4cn[nH]c4cc32)cc1 [Compound 331] ; its pEC50 = > 6.40

Entry COc1cc(-c2c(C3CCOCC3)n(-c3ccc(F)cc3)c3cc4cn[nH]c4cc23)cc(OC)c1F [Compound 141] , pEC50 reported as < 6.00
